Biological target: T1, His-tagged extracellular domain (ECD) of human IGSF11 (VSIG3) (human, UniProt Q5DX21 23-241)
T1 construct: partly bought (SinoBiological 13094-H08H); also called IGSF11-HIS; HIS-IGSF11; not shown: HIS6 tag
T1 sequence: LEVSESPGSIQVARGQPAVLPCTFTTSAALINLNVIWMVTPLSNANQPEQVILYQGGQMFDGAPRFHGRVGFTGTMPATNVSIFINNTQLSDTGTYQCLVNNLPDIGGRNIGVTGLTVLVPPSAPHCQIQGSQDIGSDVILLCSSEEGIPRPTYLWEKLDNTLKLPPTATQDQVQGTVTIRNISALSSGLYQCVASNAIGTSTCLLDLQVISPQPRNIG
Test: blocking ELISA: antibody pre-incubated with His-tagged IGSF11 ECD, complexes added to immobilised VSIR-Fc; y axis % remaining IGSF11 binding to VSIR, x axis nM IgG per legend
outcome-measure: IC50 (read off the curve)

Below, 3 binders whose answers are already recorded.
B-008 (chain-swapped IgG1) (antibody, V domains shown, human IgG1 format; also called B8) VH: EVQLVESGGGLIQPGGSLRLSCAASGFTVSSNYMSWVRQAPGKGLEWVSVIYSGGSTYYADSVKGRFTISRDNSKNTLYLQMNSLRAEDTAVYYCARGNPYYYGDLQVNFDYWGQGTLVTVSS VL: QAVVTQEPSLTVSPGGTVTPTCGSSTGAVTSGNLPNWFQQKPGQAPRALIYSTSNKHSWTPARISGSLLGGKAALTLSGVQPEDEAEYYCLLYYGGAWVFGGGTKLTVL: ~4 nM
A-006 (IgG1 format) (antibody, V domains shown, human IgG1 format; also called A-006-like ABP) VH: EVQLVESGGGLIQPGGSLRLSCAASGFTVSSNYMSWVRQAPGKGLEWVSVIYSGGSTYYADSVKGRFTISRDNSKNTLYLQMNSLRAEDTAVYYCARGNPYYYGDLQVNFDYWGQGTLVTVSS VL: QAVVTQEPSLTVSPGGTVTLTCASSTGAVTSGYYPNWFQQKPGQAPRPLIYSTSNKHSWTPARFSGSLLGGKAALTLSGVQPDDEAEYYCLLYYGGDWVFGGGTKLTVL: ~4 nM
B-007 (chain-swapped IgG1) (antibody, V domains shown, human IgG1 format; also called B7) VH: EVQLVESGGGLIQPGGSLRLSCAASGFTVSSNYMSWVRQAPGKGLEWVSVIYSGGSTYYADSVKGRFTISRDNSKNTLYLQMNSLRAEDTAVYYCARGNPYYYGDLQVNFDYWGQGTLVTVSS VL: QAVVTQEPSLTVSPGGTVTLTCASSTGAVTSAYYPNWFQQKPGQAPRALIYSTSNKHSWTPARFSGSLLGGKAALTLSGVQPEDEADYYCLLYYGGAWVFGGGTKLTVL: ~3 nM

Proceeding to the next binder to report its IC50 (read off the curve).
Ask: Form field: reported IC50 (read off the curve) of B-006 (chain-swapped IgG1) (antibody, V domains shown, human IgG1 format; also called B6) VH: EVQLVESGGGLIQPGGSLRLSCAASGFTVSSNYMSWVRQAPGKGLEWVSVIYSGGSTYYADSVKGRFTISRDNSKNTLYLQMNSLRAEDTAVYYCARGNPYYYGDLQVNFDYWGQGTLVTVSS VL: QAVVTQEPSLTVSPGETVTLTCASSTGAVTSGYYPNWFQQRPGQAPRALIYSTSNKDSWTPARFSGSLLGGKAALTLSGVQPEDEAEYYCLLYYGGAWVFGGGTKLTVL
Reply: ~5 nM

meta.source: patent US20240010720A1
